Each record here notes measured CLH.
- assay remarks: Intrinsic clearance in human liver microsomes at 0.5 uM after 3 to 30 mins in presence of NADPH by UPLC-MS/MS analysis
- Type: ADME, Microsome
experimental readout: CLH (mL/min/g)

C[C@H]1CN(c2n[nH]c3nc(N[C@H]4CC[C@H](NS(=O)(=O)CCC(F)(F)F)CC4)ncc23)CCO1; 0.7
CC(C)CS(=O)(=O)N[C@H]1CC[C@H](Nc2ncc3c(N4CCOCC4)n[nH]c3n2)CC1; 1.8
CC(C)Cc1n[nH]c2nc(N[C@H]3CC[C@H](NC(=O)Cc4ccccc4)CC3)ncc12; 1.9

---

- Test system: CYP1A1
- assay remarks: Toxicity in Crl:WI(Han) rat assessed as increase in CYP1A1 gene expression in liver at 100 to 1000 mg/kg/day, po via gavage for 7 days
- Type: organism-based
- condition parameters: Crl:WI(Han), liver, read-out: FC
experimental readout: fold induction at 168 h

COc1ccccc1-c1n[nH]c2nc(N[C@H]3CC[C@H](NS(=O)(=O)CCC(F)(F)F)CC3)nc(OC)c12; 43
